- assayed_system: human Plasma Kallikrein (Homo sapiens (Human))
- test_summary: In vitro enzyme inhibition of human plasma kallikrein (PFR-AMC cleavage)
- Assay type: biochemical
- conditions: human plasma kallikrein, Pro-Phe-Arg-AMC substrate, 37° C.; read-out: hPK IC50
assay_metric: IC50

Examples with their reported IC50 follow.
In [3]: df
Out[3]:
                         chemical_structure                            assayed_system  recorded_measurement
0  Cc1cc(N)nc(C)c1CNC(=O)c1ccnc(Cc2ccc3c(cc(Cl)c[n+]3[O-])c2)c1  human Plasma Kallikrein (Homo sapiens (Human))              < 100 nM
1  Nc1noc2cc(CNC(=O)c3ccnc(Cc4ccc5ncc(Cl)cc5c4)c3)ccc12  human Plasma Kallikrein (Homo sapiens (Human))      1000 to 10000 nM
2  Cc1nc(N)ccc1CNC(=O)c1ccnc(Cc2cc(C(=O)O)c3ncc(Cl)cc3c2)c1  human Plasma Kallikrein (Homo sapiens (Human))        100 to 1000 nM
3  NC(=O)c1cc(Cc2cc(C(=O)NCc3ccc4[nH]cc(Cl)c4c3F)ccn2)cc2cc(Cl)cnc12  human Plasma Kallikrein (Homo sapiens (Human))              < 100 nM
4  N#Cc1ccnc2ccc(Cc3cc(C(=O)NCc4ccc5c(N)nccc5c4)ccn3)cc12  human Plasma Kallikrein (Homo sapiens (Human))              < 100 nM

# input compound: COC(=O)c1cc(Cc2cc(C(=O)NCc3c(C)cc(N)nc3C)ccn2)cc2cc(Cl)cnc12 ; wanted: its IC50
< 100 nM

Please look up its IC50: Nc1nccc2cc(CNC(=O)c3ccnc(Cc4cnc5cc(F)ccc5c4)c3)ccc12
< 100 nM

May I ask what IC50 has been recorded for N#Cc1cnc2ccc(Cc3cc(C(=O)NCc4ccc5c(N)nccc5c4)ccn3)cc2c1 ?
< 100 nM

Returns the measured IC50 for the input compound. Input: CC(=O)NCc1ccc2cc(Cc3cc(C(=O)NCc4c(C)cc(N)nc4C)ccn3)ccc2n1
100 to 1000 nM

So what's the measured IC50 for this one? NC(=O)c1ccc2cc(Cc3cc(C(=O)NCc4ccc5c(N)nccc5c4)ccn3)ccc2n1
100 to 1000 nM

Bench note: what IC50 did Cc1cnc2c(C#N)cc(Cc3cc(C(=O)NCc4cc5cc[nH]c5cc4F)ccn3)cc2c1 show?
< 100 nM

---

Listing of entries alongside the reported pIC50.
- assayed_system: human Plasma Kallikrein (Homo sapiens (Human), UniProt P03952)
- Sequence (P03952 20-638): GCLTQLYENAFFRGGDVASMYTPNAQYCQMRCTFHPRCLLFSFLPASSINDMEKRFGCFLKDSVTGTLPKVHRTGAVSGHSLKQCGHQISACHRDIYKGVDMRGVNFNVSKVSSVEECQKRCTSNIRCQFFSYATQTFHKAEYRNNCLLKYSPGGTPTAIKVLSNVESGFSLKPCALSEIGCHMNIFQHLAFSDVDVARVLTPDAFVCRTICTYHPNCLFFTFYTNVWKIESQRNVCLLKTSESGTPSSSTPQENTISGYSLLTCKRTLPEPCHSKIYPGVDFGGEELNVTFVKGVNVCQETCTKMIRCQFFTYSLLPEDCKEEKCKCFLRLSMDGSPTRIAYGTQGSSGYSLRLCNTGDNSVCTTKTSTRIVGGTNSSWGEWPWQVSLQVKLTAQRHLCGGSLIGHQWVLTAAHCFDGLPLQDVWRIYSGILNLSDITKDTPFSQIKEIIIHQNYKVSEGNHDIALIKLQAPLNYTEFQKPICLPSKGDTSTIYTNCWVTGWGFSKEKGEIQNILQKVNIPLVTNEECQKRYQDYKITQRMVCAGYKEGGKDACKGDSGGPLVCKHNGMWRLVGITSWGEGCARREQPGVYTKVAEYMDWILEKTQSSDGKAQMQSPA
- test_summary: In vitro enzyme inhibition of human plasma kallikrein (PFR-AMC cleavage)
- Type: biochemical
- conditions: human plasma kallikrein, Pro-Phe-Arg-AMC substrate, 37° C.; read-out: hPK IC50
pIC50: −log10 of the molar value.

Here are 3 compounds together with their reported answers.
                                   compound  assay_metric  recorded_measurement
0  NCc1ccc2cc(Cc3cc(C(=O)NCc4cc5c(Cl)c[nH]c5cc4F)ccn3)ccc2n1 [Example 45]         pIC50          6.00 to 7.00
1  O=C(NCc1cc2c(Cl)c[nH]c2cc1F)c1ccnc(Cc2cnc3ccccc3c2)c1 [Example 125]         pIC50                > 7.00
2  Cc1ccc2ccc(Cc3cc(C(=O)NCc4ccc5c(N)nccc5c4)ccn3)cc2n1 [Example 127]         pIC50                > 7.00

GET /values?readout=pIC50&system=human Plasma Kallikrein (Homo sapiens (Human), UniProt P03952)&item= CC(=O)NCc1ccc2cc(Cc3cc(C(=O)NCc4ccc5c(N)nccc5c4)ccn3)ccc2n1 [Example 10]
6.00 to 7.00

human Plasma Kallikrein (Homo sapiens (Human), UniProt P03952) / pIC50 / N#Cc1cc(Cc2cc(C(=O)NCc3n[nH]c4ccc(Cl)cc34)ccn2)cc2cc(Cl)cnc12 [Example 54] : value?
> 7.00

Which pIC50 is reported with human Plasma Kallikrein (Homo sapiens (Human), UniProt P03952) for this entry: Cc1cc(N)nc(C)c1CNC(=O)c1ccnc(Cc2cc(Cl)c3ncc(Cl)cc3c2)c1 [Example 100] ?
> 7.00

What pIC50 appears in the records for this compound with human Plasma Kallikrein (Homo sapiens (Human), UniProt P03952)? Cc1cnc2c(C(N)=O)cc(Cc3cc(C(=O)NCc4cc5c(Cl)c[nH]c5cc4F)ccn3)cc2c1 [Example 78]
> 7.00

// lookup pIC50 | system=human Plasma Kallikrein (Homo sapiens (Human), UniProt P03952) | key= O=C(NCc1ccc2[nH]cc(Cl)c2c1F)c1ccnc(Cc2ccc3ncc(Cl)cc3c2)c1 [Example 40]
> 7.00

# value lookup — system human Plasma Kallikrein (Homo sapiens (Human), UniProt P03952), readout pIC50, item Cc1cnc2c(C(=O)O)cc(Cc3cc(C(=O)NCc4c(C)cc(N)nc4C)ccn3)cc2c1 [Example 84]
> 7.00

---

- assayed_system: human Plasma Kallikrein (Homo sapiens (Human), UniProt P03952)
- test_summary: In vitro enzyme inhibition of human plasma kallikrein (PFR-AMC cleavage)
- Assay type: biochemical
- conditions: human plasma kallikrein, Pro-Phe-Arg-AMC substrate, 37° C.; read-out: hPK IC50
Known IC50 of a selection of compounds

Example results:
In [3]: df
Out[3]:
                         chemical_structure                            assayed_system  recorded_measurement
0  O=C(NCc1cc2cc[nH]c2cc1F)c1ccnc(Cc2ccc3ncc(Cl)cc3c2)c1  human Plasma Kallikrein (Homo sapiens (Human), UniProt P03952)              < 100 nM
1  NC(=O)c1cc(Cc2cc(C(=O)NCc3cnc4[nH]cc(Cl)c4c3)ccn2)cc2cc(Cl)cnc12  human Plasma Kallikrein (Homo sapiens (Human), UniProt P03952)              < 100 nM
2  Cc1cnc2c(C#N)cc(Cc3cc(C(=O)NCc4cnc5[nH]cc(Cl)c5c4)ccn3)cc2c1  human Plasma Kallikrein (Homo sapiens (Human), UniProt P03952)              < 100 nM
3  CS(=O)(=O)c1cc(Cc2cc(C(=O)NCc3cc4c(Cl)c[nH]c4cc3F)ccn2)cc2cc(Cl)cnc12  human Plasma Kallikrein (Homo sapiens (Human), UniProt P03952)              < 100 nM
4  O=C(NCc1cc2cn[nH]c2cc1F)c1ccnc(Cc2ccc3ncc(Cl)cc3c2)c1  human Plasma Kallikrein (Homo sapiens (Human), UniProt P03952)      1000 to 10000 nM

Bench note: what IC50 did CS(=O)(=O)c1ccc2cc(Cc3cc(C(=O)NCc4cc5c(Cl)c[nH]c5cc4F)ccn3)ccc2n1 show?
100 to 1000 nM

Please look up its IC50: Cc1ccc2ccc(Cc3cc(C(=O)NCc4cc5c(Cl)c[nH]c5cc4F)ccn3)cc2n1
< 100 nM

Look at this compound and give its reported IC50. N#Cc1ccnc2ccc(Cc3cc(C(=O)NCc4cc5c(Cl)c[nH]c5cc4F)ccn3)cc12
100 to 1000 nM

# get_value(readout='IC50', item= Cc1cc(N)nc(C)c1CNC(=O)c1ccnc(Cc2cc(C(=O)O)c3ncc(Cl)cc3c2)c1 )
< 100 nM

Recorded IC50 for Cc1cc2cc(Cc3cc(C(=O)NCc4ccc5c(N)nccc5c4)ccn3)ccc2cn1 , please?
< 100 nM

Reported IC50, compound N#Cc1cnc2ccc(Cc3cc(C(=O)NCc4cc5c(Cl)c[nH]c5cc4F)ccn3)cc2c1 : ____
< 100 nM

Please look up its IC50: Cc1ccc2cc(Cc3cc(C(=O)NCc4cc5c(Cl)c[nH]c5cc4F)ccn3)ccc2n1
< 100 nM

Please report the recorded IC50 for Cc1cc(N)nc(C)c1CNC(=O)c1ccnc(Cc2ccc3nc(C#N)ccc3c2)c1 .
< 100 nM

Tell me the measured IC50 of NCc1ccc2cc(Cc3cc(C(=O)NCc4ccc5c(N)nccc5c4)ccn3)ccc2n1 , please.
100 to 1000 nM

What does the record list as IC50 for O=C(NCc1cc2c(Cl)c[nH]c2cc1F)c1ccnc(Cn2cc3cc(Cl)ccc3cc2=O)c1 ?
100 to 1000 nM

Can you look up the measured IC50 of Cc1nc(N)ccc1CNC(=O)c1ccnc(Cn2cc3cc(Cl)ccc3cc2=O)c1 for me?
100 to 1000 nM

---

- assayed_system: human Plasma Kallikrein (Homo sapiens (Human), UniProt P03952)
- test_summary: In vitro enzyme inhibition of human plasma kallikrein (PFR-AMC cleavage)
- Format: biochemical
- conditions: human plasma kallikrein, Pro-Phe-Arg-AMC substrate, 37° C.; read-out: hPK IC50
- Experimental: The ability of the compounds disclosed herein to inhibit human plasma kallikrein activity was quantified according to the procedures below. A 10 mM solution of the test compound was made in DMSO. […] A control tube containing only DMSO is included. […] 50 μL was removed from this mixture and placed into duplicate wells on a Microfluor 1Black U-bottom microtiter plate (Thermo Scientific). […] Cleavage of PFR-AMC was monitored in a Biotek Synergy H4 reader set at 37° C. […]
pIC50: −log10 of the molar value.
Entries and their pIC50

Example cases with answers are listed next.
In [3]: df
Out[3]:
                                   molecule  recorded_measurement
0  O=C(NCc1cc2c(Cl)c[nH]c2cc1F)c1ccnc(Cc2cnc3cc(Cl)ccc3c2)c1 [Example 140]                > 7.00
1  Cc1cc2cc(Cc3cc(C(=O)NCc4cc5c(Cl)c[nH]c5cc4F)ccn3)ccc2cn1 [Example 133]                > 7.00

Now examine the next entry.
So what's the measured pIC50 for this one? Nc1ccc(CNC(=O)c2ccnc(Cc3ccc4ncc(Cl)cc4c3)c2)c(C(F)(F)F)n1 [Example 30]
< 5.00
